Data origin: ChEMBL document CHEMBL4513216

Reported values of INHIBITION for individual entries
- System: Plasmodium berghei
- protocol description: Screen against P. berghei liver stage (PbLuc), transformed with Luciferase, at 10uM
- Type: functional, HepG2
- experimental setup: tested at 10 uM
About 8,600 (12%) of roughly 69,000 compounds showed an effect of 50% or more. The sample holds strong results, similar compounds and a random draw of the others, so the mix is not that of the screen.
Field format: number, assumed %, no unit text.

- molecule: "Cc1cc(NC(=O)CCn2nc(C)c3ccccc32)n(C(C)C)n1"
  test result: 59
- molecule: "Cc1cc(F)cc(S(=O)(=O)Nc2ccn(CCCC#N)n2)c1"
  test result: 26
- molecule: "CCn1nc(C)cc1NC(=O)CCn1nc(C)c2ccccc21"
  test result: 20.9

Exam item: I'd like to know its INHIBITION. The molecule in question is Cc1cc(C)n(CCCn2cncc2-c2ccc3c(c2)CC(C)N3C)n1 (stereo unspecified)
Marked response: 42.6

Exam item: Tell me the measured INHIBITION of COc1cc(N2CCO[C@H]3[C@@H](Oc4cccnc4)CC[C@@H]32)ncn1 , please.
Marked response: 23.5

Exam item: Consider the molecule shown here: COc1ccc(C)cc1S(=O)(=O)N[C@H]1CN(C(C)=O)C[C@@H]1C1CC1 What is its recorded INHIBITION?
Marked response: 35.4

====

- System: Plasmodium berghei
- protocol description: Screen against P. berghei liver stage (PbLuc), transformed with Luciferase, at 10uM
- Format: functional, HepG2
- experimental setup: tested at 10 uM
Hit rate of the full screen: of about 69,000 compounds, about 8,600 (12%) showed an effect of 50% or more. Shown is part of a subset that was picked to be rich in strong results.
property label: INHIBITION (%)
Reply with just the number (in %).

Before answering, review these 8 worked examples.
- molecule: "CCN1CCN(c2ccc(C(=O)NCCn3ccnc3)cc2F)CC1"
  INHIBITION [%]: 38.8
- molecule: "CC(C)N1CC2(CCCN(c3ccccn3)C2)CCC1=O (centres undefined)"
  INHIBITION [%]: -9.18
- molecule: "CC(=O)c1cccc(NC(=O)CN2CCCC(C3OCCO3)C2)c1 (centres undefined)"
  INHIBITION [%]: 53.4
- molecule: "N#Cc1ccc(S(=O)(=O)NC(=O)C2CC(c3ccccc3)=NO2)cc1 (centres undefined)"
  INHIBITION [%]: 6.09
- molecule: "O=C(CCc1cc2n(n1)CCNC2)NCCS(=O)(=O)N1CCCC1"
  INHIBITION [%]: -18.1
- molecule: "Cc1cnn(C2CN(CCOc3ccc(C#N)cc3)C2)c1"
  INHIBITION [%]: -26.1
- molecule: "CCc1nc(C2CCCN2CCCS(N)(=O)=O)no1 (centres undefined)"
  INHIBITION [%]: 31.9
- molecule: "CC(=O)NCc1cc2n(n1)CCN(Cc1cccc(Cl)c1Cl)C2"
  INHIBITION [%]: -26.8

Exam item: Test system Plasmodium berghei; read-out INHIBITION; what value for CN(C)CCOCc1nnc2n1CCN(Cc1ccoc1)CC2 ?
Marked response: 0.618

Exam item: What INHIBITION appears in the records for this molecule with Plasmodium berghei? Cc1ccc(NC(=O)C2CSCN2C(=O)c2cccnc2)c(C)c1 (centres undefined)
Marked response: 0.8

Exam item: Give the reported INHIBITION for Cc1cc(C2CCCCCN2Cc2cn(C)nc2C)no1 (centres undefined) (system: Plasmodium berghei).
Marked response: 6.32

Exam item: Test system Plasmodium berghei; read-out INHIBITION; what value for CC(=O)c1cccc(NC(=O)CN2CCCCC2C2OCCO2)c1 (centres undefined) ?
Marked response: 1.81
